Just for reference, patent US20220110862A1 is where these values come from.

Protocol Notes: Brain concentration and brain:plasma ratio of Compound 1.003 after single intranasal administration of nasal formulation Ex. A (LC-MS/MS)
Format: in vivo, Mouse
Experimental Setup: female athymic mice, single intranasal 50 μL Ex. A, 0.250 h post dose, mean of 3
Readout Name: Brain concentration, Mean (ng/g)
One number for each entry, in ng/g.

Q. # lookup: Brain concentration, Mean of Cn1c(Nc2ccc(I)cc2F)c(C(=O)NOCCO)c2cccnc21 [Compound 1.003]
A. 353

----------
Protocol Notes: Brain concentration and brain:plasma ratio of Compound 1.003 after single intranasal administration of nasal formulation Ex. A (LC-MS/MS)
Format: in vivo, Mouse
Experimental Setup: female, NCr mu/mu athymic nude, mouse, brain, inhaled or intranasal, 50 μL, female athymic mice, single intranasal 50 μL Ex. A, 1.00 h post dose
Readout Name: Kp at 1 h

Q. # lookup: Kp at 1 h of Cn1c(Nc2ccc(I)cc2F)c(C(=O)NOCCO)c2cccnc21
A. 1.7

----------
Protocol Notes: Brain concentration and brain:plasma ratio of Compound 1.003 after single intranasal administration of nasal formulation Ex. A (LC-MS/MS)
Type: in vivo, Mouse
Experimental Setup: female, NCr mu/mu athymic nude, mouse, brain, inhaled or intranasal, 50 μL, female athymic mice, single intranasal 50 μL Ex. A, 0.250 h post dose, animals 1-3; read-out: Brain:plasma concentration ratio, individual animal
Readout Name: Kp at 0.25 h
One number for each entry.

Q. # lookup: Kp at 0.25 h of Cn1c(Nc2ccc(I)cc2F)c(C(=O)NOCCO)c2cccnc21 [Compound 1.003]
A. 0.34

----------
Protocol Notes: Plasma concentration of Compound 1.003 after single intranasal administration of nasal formulation Ex. A (LC-MS/MS)
Format: in vivo, Mouse
Experimental Setup: female, NCr mu/mu athymic nude, mouse, plasma, other: intranasal, 50 μL, female athymic mice, single intranasal 50 μL Ex. A, 4.0 h post dose, individual animals; read-out: Plasma concentration, animal replicates
Readout Name: concentration at 4 h (ng/mL)
One number for each entry, in ng/mL.

Q. # lookup: concentration at 4 h of Cn1c(Nc2ccc(I)cc2F)c(C(=O)NOCCO)c2cccnc21
A. 45.5

----------
Protocol Notes: Brain concentration and brain:plasma ratio of Compound 1.003 after single intranasal administration of nasal formulation Ex. A (LC-MS/MS)
Type: in vivo, Mouse
Experimental Setup: female, NCr mu/mu athymic nude, mouse, brain, inhaled or intranasal, 50 μL, female athymic mice, single intranasal 50 μL Ex. A, 0.250 h (15 min) post dose; read-out: Brain:plasma concentration ratio, Mean
Readout Name: Kp at 0.25 h
Give bare numbers.

Q. # lookup: Kp at 0.25 h of Cn1c(Nc2ccc(I)cc2F)c(C(=O)NOCCO)c2cccnc21
A. 0.38

----------
Protocol Notes: Plasma concentration of Compound 1.003 after single intranasal administration of nasal formulation Ex. A (LC-MS/MS)
Format: in vivo, Mouse
Experimental Setup: female, NCr mu/mu athymic nude, mouse, plasma, other: intranasal, 50 μL, female athymic mice, single intranasal 50 μL Ex. A, 4.0 h post dose, mean of 3; read-out: Plasma concentration, Mean
Readout Name: concentration at 4 h
Respond with the figure and its unit, in that order.

Q. # lookup: concentration at 4 h of Cn1c(Nc2ccc(I)cc2F)c(C(=O)NOCCO)c2cccnc21
A. 60.1 ng/mL

----------
Protocol Notes: Brain concentration and brain:plasma ratio of Compound 1.003 after single intranasal administration of nasal formulation Ex. A (LC-MS/MS)
Format: in vivo, Mouse
Experimental Setup: female, NCr mu/mu athymic nude, mouse, brain, inhaled or intranasal, 50 μL, female athymic mice, single intranasal 50 μL Ex. A, 4.00 h post dose
Readout Name: Kp at 4 h
Numbers only.

Q. # lookup: Kp at 4 h of Cn1c(Nc2ccc(I)cc2F)c(C(=O)NOCCO)c2cccnc21
A. 1.7

----------
Protocol Notes: Brain concentration and brain:plasma ratio of Compound 1.003 after single intranasal administration of nasal formulation Ex. A (LC-MS/MS)
Format: in vivo, Mouse
Experimental Setup: female, NCr mu/mu athymic nude, mouse, brain, inhaled or intranasal, 50 μL, female athymic mice, single intranasal 50 μL Ex. A, 0.500 h post dose; read-out: Brain:plasma concentration ratio, Mean
Readout Name: Kp at 0.5 h
Answers are plain numbers.

Q. # lookup: Kp at 0.5 h of Cn1c(Nc2ccc(I)cc2F)c(C(=O)NOCCO)c2cccnc21 [Compound 1.003]
A. 0.46

----------
Protocol Notes: Plasma concentration of Compound 1.003 after single intranasal administration of nasal formulation Ex. A (LC-MS/MS)
Assay type: in vivo, Mouse
Experimental Setup: female, NCr mu/mu athymic nude, mouse, plasma, other: intranasal, 50 μL, female athymic mice, single intranasal 50 μL Ex. A, 0.5 h post dose, mean of 3; read-out: Plasma concentration, Mean
Readout Name: concentration at 0.5 h (ng/mL)
Numbers only, in ng/mL.

Q. # lookup: concentration at 0.5 h of Cn1c(Nc2ccc(I)cc2F)c(C(=O)NOCCO)c2cccnc21
A. 860

----------
Protocol Notes: Plasma concentration of Compound 1.003 after single intranasal administration of nasal formulation Ex. A (LC-MS/MS)
Assay type: in vivo, Mouse
Experimental Setup: female, NCr mu/mu athymic nude, mouse, plasma, other: intranasal, 50 μL, female athymic mice, single intranasal 50 μL of nasal formulation Ex. A (2.3%), 0.25 h post dose, mean of 3
Readout Name: concentration at 0.25 h
Respond with the figure and its unit, in that order.

Q. # lookup: concentration at 0.25 h of Cn1c(Nc2ccc(I)cc2F)c(C(=O)NOCCO)c2cccnc21
A. 996 ng/mL

----------
Protocol Notes: Plasma concentration of Compound 1.003 after single intranasal administration of nasal formulation Ex. A (LC-MS/MS)
Type: in vivo, Mouse
Experimental Setup: female, NCr mu/mu athymic nude, mouse, plasma, other: intranasal, 50 μL, female athymic mice, single intranasal 50 μL Ex. A, 1.0 h post dose, individual animals; read-out: Plasma concentration, animal replicates
Readout Name: concentration at 1 h (µg/mL)
Give bare numbers, in µg/mL.

Q. # lookup: concentration at 1 h of Cn1c(Nc2ccc(I)cc2F)c(C(=O)NOCCO)c2cccnc21
A. 0.13

----------
Protocol Notes: Brain concentration and brain:plasma ratio of Compound 1.003 after single intranasal administration of nasal formulation Ex. A (LC-MS/MS)
Type: in vivo, Mouse
Experimental Setup: female athymic mice, single intranasal 50 μL Ex. A, 4.00 h post dose, mean of 3
Readout Name: Brain concentration, Mean (ng/g)
One number for each entry, in ng/g.

Q. # lookup: Brain concentration, Mean of Cn1c(Nc2ccc(I)cc2F)c(C(=O)NOCCO)c2cccnc21
A. 88.1
